Tested on: Hs-578T
Test: cells
Settings: Homo sapiens, 72 h
Description: Cytotoxicity in human Hs 578T cells assessed as reduction in cell viability incubated for 72 hrs by SRB assay
Observation Type: IC50
# do not omit the unit; it follows the number

Given the entry COc1cc2c(-c3cnc(-c4ccc[nH]4)o3)c[nH]c2cc1Br , what IC50 was observed with Hs-578T?
5.22 µM

###

Molecular target: Mitogen-activated protein kinase kinase kinase 7 (Homo sapiens, UniProt O43318)
Sequence (O43318 whole entry): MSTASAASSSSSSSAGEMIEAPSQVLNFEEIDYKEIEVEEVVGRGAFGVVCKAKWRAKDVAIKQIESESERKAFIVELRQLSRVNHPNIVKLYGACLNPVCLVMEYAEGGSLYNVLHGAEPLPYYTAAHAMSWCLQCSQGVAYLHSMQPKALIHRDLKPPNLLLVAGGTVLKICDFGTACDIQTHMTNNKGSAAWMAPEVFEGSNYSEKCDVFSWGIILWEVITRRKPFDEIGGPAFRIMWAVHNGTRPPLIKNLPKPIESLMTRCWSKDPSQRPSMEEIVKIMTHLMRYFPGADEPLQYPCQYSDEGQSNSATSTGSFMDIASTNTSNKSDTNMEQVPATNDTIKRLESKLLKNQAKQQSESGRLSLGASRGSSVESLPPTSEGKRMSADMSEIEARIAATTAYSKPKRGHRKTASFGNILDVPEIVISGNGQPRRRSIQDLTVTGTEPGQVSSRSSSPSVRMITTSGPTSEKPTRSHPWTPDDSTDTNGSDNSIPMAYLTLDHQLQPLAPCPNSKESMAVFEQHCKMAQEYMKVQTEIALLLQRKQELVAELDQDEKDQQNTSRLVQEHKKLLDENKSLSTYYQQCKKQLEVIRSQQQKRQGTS
Test: Inhibition of TAK1 (unknown origin) by [33P]-ATP filter binding kinase assay
Observation Type: IC50 (µM)
Please give a number only; it is taken to be in µM.

Returns the measured IC50 for the input molecule. Input: COc1cc(Br)cc2[nH]cc(-c3cnc(-c4ccc[nH]4)o3)c12
1

What do you get for COc1cc(Br)cc2[nH]c(I)c(-c3cnc(-c4ccc[nH]4)o3)c12 ?
18

What do you get for COc1cc2c(-c3cnc(-c4ccc[nH]4)o3)c[nH]c2cc1Br ?
1.2

What do you get for COc1cc(Br)cc2[nH]cc(-c3cnc(-c4cc(Br)c[nH]4)o3)c12 ?
36
